Reference source for all entries: patent US12157755B2

Target: CD73 (Homo sapiens)
Sequence (P21589 27-547 limits assumed): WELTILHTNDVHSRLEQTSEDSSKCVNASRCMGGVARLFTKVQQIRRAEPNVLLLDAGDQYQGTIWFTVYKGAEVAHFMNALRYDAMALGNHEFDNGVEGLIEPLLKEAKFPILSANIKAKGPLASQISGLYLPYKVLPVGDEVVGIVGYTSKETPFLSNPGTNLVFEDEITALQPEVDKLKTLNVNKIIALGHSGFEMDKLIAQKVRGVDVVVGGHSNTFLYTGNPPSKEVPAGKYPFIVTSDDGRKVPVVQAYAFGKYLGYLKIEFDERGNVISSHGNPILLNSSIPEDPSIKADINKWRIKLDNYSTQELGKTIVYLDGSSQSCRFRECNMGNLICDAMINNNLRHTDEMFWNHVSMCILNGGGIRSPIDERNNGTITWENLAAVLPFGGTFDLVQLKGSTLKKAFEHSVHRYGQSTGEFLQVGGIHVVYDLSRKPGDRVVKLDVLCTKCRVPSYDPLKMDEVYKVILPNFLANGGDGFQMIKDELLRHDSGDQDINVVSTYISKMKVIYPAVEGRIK
measured attribute: IC50 (nM)

C[C@H](Nc1cc(Cl)nc2c1cnn2[C@@H]1O[C@H](COP(=O)(O)CP(=O)(O)O)[C@@H](O)[C@H]1O)c1ccc(S(F)(F)(F)(F)F)cc1F :: 36.5
C[C@@H](Nc1cc(Cl)nc2c1cnn2[C@@H]1O[C@H](COP(=O)(O)CP(=O)(O)O)[C@@H](O)[C@H]1O)c1cccc(S(F)(F)(F)(F)F)c1 :: 4.8
Cc1cc(N[C@@H]2CCc3cc(F)cc(F)c32)c2cnn([C@@H]3O[C@H](COP(=O)(O)CP(=O)(O)O)[C@@H](O)[C@H]3O)c2n1 :: 0.89
O=P(O)(O)CP(=O)(O)OC[C@H]1O[C@@H](n2ncc3c(NCc4ccccc4S(F)(F)(F)(F)F)cc(Cl)nc32)[C@H](O)[C@@H]1O :: 3.1
O=P(O)(O)CP(=O)(O)OC[C@H]1C[C@@H](c2ccc3c(N[C@@H]4CCc5ccc(C(F)(F)F)cc54)nc(Cl)nn23)[C@H](O)[C@@H]1O :: 21.7
C[C@H](Nc1cc(Cl)nc2c1cnn2[C@@H]1O[C@H](COP(=O)(O)CP(=O)(O)O)[C@@H](O)[C@H]1O)c1cccc(S(F)(F)(F)(F)F)c1 :: 2
O=P(O)(O)CP(=O)(O)OC[C@H]1C[C@@H](c2ccc3c(N[C@@H]4CCc5cc(Cl)ccc54)nc(Cl)nn23)[C@H](O)[C@@H]1O :: 7.8
O=P(O)(O)CP(=O)(O)OC[C@H]1C[C@@H](c2ccc3c(N[C@@H]4CCc5cc(F)cc(F)c54)nc(Cl)nn23)[C@H](O)[C@@H]1O :: 1.01
C[C@H](Nc1nc(Cl)nc2c1cnn2[C@@H]1O[C@H](COP(=O)(O)CP(=O)(O)O)[C@@H](O)[C@H]1O)c1ccc(S(F)(F)(F)(F)F)cc1 :: 20.6

1: O=P(O)(O)CP(=O)(O)OC[C@H]1C[C@@H](c2ccc3c(N[C@@H]4CCc5ccccc54)nc(Cl)nn23)[C@H](O)[C@@H]1O
2: O=P(O)(O)CP(=O)(O)OC[C@H]1O[C@@H](n2ncc3c(N[C@@H]4CCc5cc(Cl)ccc54)cc(Cl)nc32)[C@H](O)[C@@H]1O
// query Among 1 and 2 , which shows a numerically higher IC50 result? Please reply using the label of the selected record.
// result 1
(1: 5.5 nM, 2: 1.67 nM)

* * *

target: CD73 enzymatic activity expressed on the cell surface of MDA-MB-231 cells (Homo sapiens, UniProt P21589); construct: Human breast cancer cells MDA-MB-231 that endogenously express CD73 were used; assay: Inhibition of CD73 enzymatic activity on the cell surface (Cell Titer Glo (CTG) experiment), MDA-MB-231 cells; conditions: MDA-MB-231 cells endogenously expressing CD73, AMP, 37° C. for 2 hours, CTG readout; read-out: Cellular activity IC50
measured attribute: IC50 (nM)

O=P(O)(O)CP(=O)(O)OC[C@H]1O[C@@H](n2ncc3c(N[C@@H]4CCc5ccccc54)cc(Cl)nc32)[C@H](O)[C@@H]1O :: 0.13

a: O=P(O)(O)CP(=O)(O)OC[C@H]1C[C@@H](c2ccc3c(N[C@@H]4CCc5cc(C(F)(F)F)ccc54)nc(Cl)nn23)[C@H](O)[C@@H]1O
b: O=P(O)(O)CP(=O)(O)OC[C@H]1O[C@@H](n2ncc3c(N[C@@H]4CCc5cc(Cl)ccc54)cc(Cl)nc32)[C@H](O)[C@@H]1O
// query From the items above, decide which of a and b has the lower IC50 reading. Please reply using the label of the selected record.
// result b
(b: 0.24 nM, a: 0.743 nM)

* * *

Target: CD73 enzymatic activity expressed on the cell surface of MDA-MB-231 cells (Homo sapiens, UniProt P21589)
Construct: Human breast cancer cells MDA-MB-231 that endogenously express CD73 were used
Sequence (P21589 27-549): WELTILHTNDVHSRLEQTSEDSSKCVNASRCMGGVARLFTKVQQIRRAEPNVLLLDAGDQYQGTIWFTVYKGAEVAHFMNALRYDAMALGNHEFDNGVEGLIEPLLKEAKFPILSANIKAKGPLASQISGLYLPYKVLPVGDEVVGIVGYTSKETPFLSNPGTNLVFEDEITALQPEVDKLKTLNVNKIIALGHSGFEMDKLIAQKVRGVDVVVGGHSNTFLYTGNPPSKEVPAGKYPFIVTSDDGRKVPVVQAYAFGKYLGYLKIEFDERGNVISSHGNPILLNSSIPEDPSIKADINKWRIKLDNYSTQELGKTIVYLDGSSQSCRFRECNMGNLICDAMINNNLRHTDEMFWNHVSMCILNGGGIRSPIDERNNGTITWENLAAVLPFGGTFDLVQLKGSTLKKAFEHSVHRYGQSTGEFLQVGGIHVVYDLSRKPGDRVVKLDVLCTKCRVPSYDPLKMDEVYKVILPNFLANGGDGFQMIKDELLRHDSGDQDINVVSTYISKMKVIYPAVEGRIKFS
Assay: Inhibition of CD73 enzymatic activity on the cell surface (Cell Titer Glo (CTG) experiment), MDA-MB-231 cells
Conditions: MDA-MB-231 cells endogenously expressing CD73, AMP, 37° C. for 2 hours, CTG readout; read-out: Cellular activity IC50
pIC50: −log10 of the molar value.
measured attribute: pIC50

C[C@H](Nc1nc(Cl)nc2c1cnn2[C@@H]1O[C@H](COP(=O)(O)CP(=O)(O)O)[C@@H](O)[C@H]1O)c1ccc(S(F)(F)(F)(F)F)cc1F [Example 4] :: 9.05

P: O=P(O)(O)CP(=O)(O)OC[C@H]1O[C@@H](n2ncc3c(N[C@@H]4CCc5cc(F)c(F)cc54)cc(Cl)nc32)[C@H](O)[C@@H]1O [Example 22]
Q: C[C@H](Nc1cc(Cl)nc2c1cnn2[C@@H]1O[C@H](COP(=O)(O)CP(=O)(O)O)[C@@H](O)[C@H]1O)c1ccc(S(F)(F)(F)(F)F)cc1F [Example 5]
// query Among P and Q , which shows a numerically higher pIC50 result? Please reply using the label of the selected record.
// result P
